Tested on: 883617-216-R-J1-PDC complex spheroid viability;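 note: exposure lasted seven days after three days of spheroid growth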
Test: Anticancer human tumor 883617-216-R-J1-PDC patient-derived bladder carcinoma cell line growth inhibition
Settings: second compound 3.16 µM; first compound 0.00316 µM; stronger effect = lower value
Under this convention, Met denotes viability, T/C strictly below 70% and Not met denotes viability, T/C at or above 70%.

> print(dat)
                                    compound    label
 1  CC(C)CC(NC(=O)CNC(=O)c1cc(Cl)ccc1Cl)B1OC(=O)CC(CC(=O)O)(C(=O)O)O1 (stereo unspecified) + NC1CC1c1ccc(-c2cccc(O)c2)cc1      Met
 2  O=C(C=Cn1cnc(-c2cc(C(F)(F)F)cc(C(F)(F)F)c2)n1)NNc1cnccn1 + NC1CCC(NC2CC2c2ccccc2)CC1  Not met
 3  CC(C)CC(NC(=O)CNC(=O)c1cc(Cl)ccc1Cl)B1OC(=O)CC(CC(=O)O)(C(=O)O)O1 (stereo unspecified) + NC1CCC(NC2CC2c2ccccc2)CC1  Not met
 4  COc1cc(Nc2ncc3c(n2)-c2ccc(Cl)cc2C(c2c(F)cccc2OC)=NC3)ccc1C(=O)O + NC1CC1c1ccc(-c2cccc(O)c2)cc1  Not met
 5  Nc1ncn(C2CC(O)C(CO)O2)c(=O)n1 (stereo unspecified) + NC1CC1c1ccc(-c2cccc(O)c2)cc1  Not met
 6  CC1COCCN1c1cc(-c2ccnn2C)c2ccnc(-c3ccn[nH]3)c2n1 (stereo unspecified) + NC1CCC(NC2CC2c2ccccc2)CC1  Not met
 7  CC[C@@]1(O)C(=O)OCc2c1cc1n(c2=O)Cc2cc3c(CN(C)C)c(O)ccc3nc2-1 + NC1CCC(NC2CC2c2ccccc2)CC1      Met
 8  Cn1ncnc1C1c2n[nH]c(=O)c3cc(F)cc(c23)NC1c1ccc(F)cc1 (stereo unspecified) + NC1CCC(NC2CC2c2ccccc2)CC1  Not met
 9  CC(C)CC(NC(=O)C(Cc1ccccc1)NC(=O)c1cnccn1)B(O)O (stereo unspecified) + NC1CCC(NC2CC2c2ccccc2)CC1      Met
10  O=C(C=Cn1cnc(-c2cc(C(F)(F)F)cc(C(F)(F)F)c2)n1)NNc1cnccn1 + NC1CC1c1ccc(-c2cccc(O)c2)cc1      Met
11  CC[C@@]1(O)C(=O)OCc2c1cc1n(c2=O)Cc2cc3c(CN(C)C)c(O)ccc3nc2-1 + NC1CC1c1ccc(-c2cccc(O)c2)cc1      Met
12  Nc1ncn(C2CC(O)C(CO)O2)c(=O)n1 (stereo unspecified) + NC1CCC(NC2CC2c2ccccc2)CC1  Not met
13  CC1COCCN1c1cc(-c2ccnn2C)c2ccnc(-c3ccn[nH]3)c2n1 (stereo unspecified) + NC1CC1c1ccc(-c2cccc(O)c2)cc1      Met
14  CC(C)CC(NC(=O)C(Cc1ccccc1)NC(=O)c1cnccn1)B(O)O (stereo unspecified) + NC1CC1c1ccc(-c2cccc(O)c2)cc1      Met
15  COc1cc(Nc2ncc3c(n2)-c2ccc(Cl)cc2C(c2c(F)cccc2OC)=NC3)ccc1C(=O)O + NC1CCC(NC2CC2c2ccccc2)CC1  Not met
16  Cn1ncnc1C1c2n[nH]c(=O)c3cc(F)cc(c23)NC1c1ccc(F)cc1 (stereo unspecified) + NC1CC1c1ccc(-c2cccc(O)c2)cc1      Met
